# target_or_test_system: T1, ANK domain of Notch1 intracellular domain (N1ICD-ANK) (UniProt P46531 1927-2122)
# T1 construct: Notch1, ankyrin repeat (ANK) domain of the intracellular domain; the numbers fit human NOTCH1 (2555 aa); also called ANK repeat
# T1 sequence (P46531 1927-2122): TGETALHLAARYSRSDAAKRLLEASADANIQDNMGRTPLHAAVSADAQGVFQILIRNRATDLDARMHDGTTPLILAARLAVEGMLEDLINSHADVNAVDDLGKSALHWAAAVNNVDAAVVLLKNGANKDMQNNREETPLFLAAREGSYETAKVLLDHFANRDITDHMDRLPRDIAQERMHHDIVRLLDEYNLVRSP
# experiment: SPR; BIAcore T200 (GE Healthcare); dissociation constant calculated with BIA-evaluation software; which partner was immobilised is not stated
# details: both partners purified
Bridge positions count the residues as written; N and C are the ends. Square brackets hold non-standard residues; d marks the D form. Ends that are not written are not given here. S5 = C=CCCC[C@](C)(N)C(=O)O
property_measured: Kd (µM)
Respond numerically; units are µM and should not be typed.

Illustrative cases are given below, each with its answer.
LLEKKRQY (N1DARP, 41-aa microprotein encoded by LINC00261 (ORF12); source: synthetic peptide (Chinese Peptide, Inc., Hangzhou; > 98% purity)) [AH1, alpha-helical peptide 1 of N1DARP]: 0.213
YAKRIFYQLLSAQL (N1DARP residues 20-33 with E32Q and position 12 of the peptide (K31) to Ala; source: synthetic peptide (Chinese Peptide, Inc., Hangzhou; > 98% purity)) [mAH2-12, alanine mutant of mAH2]: 0.0782
YAKRI[S5]YQLLSK[S5]L (staple 6-13) [SAH-mAH2-5, N1DARP-derived stapled peptide]: 0.000898
YAKRI[S5]YQL[S5]SKQL (staple 6-10) [SAH-mAH2-3, stapled alpha-helix of mAH2]: 0.0105

// below: Kd requested for another binder
Kd for YAKRIFYQLLSKAL (N1DARP residues 20-33 with position 13 of the peptide (residue 32: Glu in N1DARP, Gln in mAH2) to Ala; source: synthetic peptide (Chinese Peptide, Inc., Hangzhou; > 98% purity)) [mAH2-13, alanine mutant of mAH2] is 0.099

Attribution: paper PMC10504324
